Assay: yeast display, Sf9 membrane polyspecificity reagent, FACS + sequencing; frameworks hold sequencing errors

# MACROMOLECULE_SEQUENCE, polyreactivity (PSR sort gate)
data = [
    ("QVQLVESGGGLVQAGGSLRLSCAASGRTIGWYTMGWYRQERGKERELVAAISGRGGSTTYADSVKGRFTISRDNAKNTVYLQMNSLKPEDTAVYYCAKRRVRGTTRRYGYWGQGTQVTVSS", "high polyreactivity"),
    ("QVQLVESGGGLVQAGGSLRLSCAASGRTFYRNDMGWYRQEPGKEREFVAAITSSGGTTYADSVKGRFTISRDNAKNTVYLQMNSLKPEDTAVYYCNTVLYPYWQWDYEFDYWGQGTQVTVSS", "low polyreactivity"),
    ("QVQLVESGGCLVQAGGSLRLSCAASGSILATNVMGWYRQSPGKESQFVAAISSGGSTNYADSVKGRFTISRDNAKYTVYLQMNSLKPEDTAVYYCATSSIWGSGRVRWVSYYYWGQGSQVTVSS", "low polyreactivity"),
    ("QVQLVESGGGLVLAGGSLSLSCAASGSIFNWYAMGWYRKAHGKERELVAAISWRGGSTYYADSVKGRFTISRDNAINSVYFQMNSLKPEDTAVYYCASDGGGDHMDYWGQGTQVSVSS", "high polyreactivity"),
    ("QVQLVESGGGLVQAGGSLRLSCAASGRPFRGNAMGWYRQAPGKERQLVAAITGTGGSTYYADSVKGRFTISRDNAKNTVYLQMNSVKPEDTAVYYCAAVLRGHNGLNFEYWGQGTQVTVSS", "high polyreactivity"),
]

---

Assay: yeast display, Sf9 membrane polyspecificity reagent, FACS + sequencing; frameworks hold sequencing errors
METRIC: polyreactivity (PSR sort gate)

# MACROMOLECULE_SEQUENCE, METRIC, RESULT
records = [
    ("QVQLVESGGGLVQAGGSLRLSCAASGSTFQYYAMGWYRQAPGKERELVAAISSGGRTNYADSVKGRFTISRDNAKNTVYLQMNSLKPEDTAVYYCAARWCYTKGEFDYWGQGTQVTVSS", "polyreactivity (PSR sort gate)", "high polyreactivity"),
    ("QVQLVESGGGLVQAGGSLRLSCAASGIIFSSYAMGWYRQAPGKERELVAAIDWRGDSTYYADSVKGRFTISRDNAKNTVYLQMNSLKPEDTAVYYCAADGSTYDSVRYGYWGQGTQVTVSS", "polyreactivity (PSR sort gate)", "low polyreactivity"),
    ("QVKLVESGGGLVQAGGSLRLSCAASGFIFLLYDMGWYRQAPGKERELVAANTSDGTTNYADSVKGRFTISRDNAKNTVYLQMNSLKPEDTAVYYCAADDEPYVYEVTAYLGYEYWGQGTQVTVSS", "polyreactivity (PSR sort gate)", "high polyreactivity"),
    ("QVQLVESGGGLFQAGGSLRLSCAASGRIFGFYAMGWYRQAPGKERELVARITLSGGRTYYADSVKGRFTISRDNAKNTVYLQMNSLKPEDTAVYYCAADSIGRLWGYGYWGQGTQVTVSS", "polyreactivity (PSR sort gate)", "high polyreactivity"),
    ("QVQLVESGGGLVQAGGSLRLSCASSGSIFTINAMGWYRQAPGKERELVAAIPYSGGFTYYADSVKGRFTISRDNAKNTVYLQMNSLKPEDTAVYYCAAVRGYPSRITSYVYTYGYWGQGTQVTVSS", "polyreactivity (PSR sort gate)", "low polyreactivity"),
    ("QVQLVESGGGLVQAGGSLRLSCAASGITFYFYAMGWYRQAPGKERELVAAISGSSGSTYYADSVKGRFTISRDNAKNTVYLQMNSLKPEDTAVYYCAAYNRWSGGFEYWGQGTQVTVSS", "polyreactivity (PSR sort gate)", "high polyreactivity"),
    ("QVQLVESGGGLVQAGGSLRLSCAASGITFFDYAMGWYRQAPGKERELFAAIDLSDGRTYYADSVKGRFTISRDNAKNTVYLQMNSLKPEDTAVYYCNADSFLSWVYRYVYYGSGYWGQGTQVTVSS", "polyreactivity (PSR sort gate)", "low polyreactivity"),
    ("QVQLVESGGGLVQAGGSLRLSCAASGNTFGRYAMGWYRQAPGKERELVAAITKRGGTTYYADSVKGRFTISRDNAKNTVYLKMNSLKPEDTAVYYCAAKRSVLRTADYDYWGQGTQVTVSS", "polyreactivity (PSR sort gate)", "high polyreactivity"),
    ("QVQLVESGGGLVQAGGSLRLSCAASGRTFSRYAMGWYRPAPGKERELVAAISSSGGSTYYADSVKGRFTISRDHAKNTVYLQMNSLKPEDTAVYYCAKYFIRDNRYDYWGQGTQVTVSS", "polyreactivity (PSR sort gate)", "high polyreactivity"),
    ("QVQLVESGGVLVQAGGSLRLSCAASGRTFDSYAMGWYRQAPGKERELVAAISSRGTRTYYADSVKWRFTISRDNAKNTVYLQMNSLKPEDTAVYYCNAGGAYEYDYWGQGTQVTVSS", "polyreactivity (PSR sort gate)", "high polyreactivity"),
    ("QVQLVESGGGLVQAGGSLRLSCAASGRIFGYNAMGWYRQAPGKERELVAAISSTGNTYYADSVKGRFTISRDNAKNTVYLQMNSLKPEDTAVYYCARSWLYSQRRYDYWGQGTQVTVSS", "polyreactivity (PSR sort gate)", "low polyreactivity"),
]

---

Assay: yeast display, Sf9 membrane polyspecificity reagent, FACS + sequencing; frameworks hold sequencing errors
METRIC: polyreactivity (PSR sort gate)

# MACROMOLECULE_SEQUENCE, RESULT
measured = [
    ("QVQLVESGGGLVQAGGSLRLSCAASGSTFRYNAMGWYRQAPGKERELVAAITSGGGTNYADSVKGRFTISRDNAKNTVYLQMKSLKPEDTAVYYCAAPWGLGSELLKRDYWGQGTQVTVSS", "low polyreactivity"),
    ("QVQLVESGGGLVQAGGSLRLSCAASGNTFTWYTIGWYRQAPGKERELVAVSTSDGSTYYADSVKGRFTISRDNAKHTVYLQMNSLKPEDTAVYYCTAGGGTNYGSGYWYGYYYWGQGTQVTVSS", "low polyreactivity"),
    ("QVQLVQSGGGLVQAGGSLRLSCAASGFTFIRYAMGWYRQAPGKERELVAAIRGTGTSTYYADSVKGRFTISRDIAKNTVYLQMNSLKPEDTAVYYCNAGTYYRSYGYDYWGQGTQVTVSS", "low polyreactivity"),
    ("QVQLVESGGGLVQAGGSLRLSSAAYGRIFAANANGWYRQAPGKERELVAAISSGGSTNYADSVKGRFTISRDNAKNTVYLPMISLKPEDTAVYYCAADASWYAYCYYYWGQGTQVTVSS", "low polyreactivity"),
]

---

Experiment: yeast display, Sf9 membrane polyspecificity reagent, FACS + sequencing; frameworks hold sequencing errors
METRIC: polyreactivity (PSR sort gate)

# MACROMOLECULE_SEQUENCE, METRIC, RESULT
rows = [
    ("QFQLVESGGGLVQAGGSLRLSCAASGGTFNQYAMGWYRQAPGKEREFVASISRRGGSTYYADSVKGRFTISRDNAKNTVDLQMNSLKPEDTAVYYCAADAFFRLDYYYWGQGTQVTVSS", "polyreactivity (PSR sort gate)", "high polyreactivity"),
    ("QVQLVESGGGLVQAGGSLRLSCAASGYIFKRYAMGWYRQAPGKERELVAAISSRGGSTYYADSVKGRFTISRDNAKNTVYLQMNSLKPEDTAVYYCAAVSWFRNYYWGQGTQVTVSS", "polyreactivity (PSR sort gate)", "high polyreactivity"),
    ("QVHLVESRGGLLQAGGSLRLSCAASVYIFYYYAMGWYRQAPGKEREFVAAITSGDSTYADSVKGRFTISRDNAKNTVYLQMYSLKPEDTAVYYCAAESYFFSPRTREKFDSWGQGTQVTVSS", "polyreactivity (PSR sort gate)", "low polyreactivity"),
    ("QVQLVESGGGLVHAGGSLRLSCAASGIIFDDYAMGWNRQAPGKERELVAAIRSGVSTNYADSVKGRFTISRDNAKNTVYLQMNSLKPEDTAVYYCAARNTAPYFTEYDYWGQGTQVTVSS", "polyreactivity (PSR sort gate)", "low polyreactivity"),
    ("QVQLVESGGGLVQAGGSLRLSCAASGRIFTQNAMGWYRQAPGKERELVAAINYSGGRTYYADSVKGRFTISRDNAKNTVYLQMNSLKPEDTAVYYCAAEWYTRFYISYGYWGQGTQVTVSS", "polyreactivity (PSR sort gate)", "high polyreactivity"),
    ("QVQLVESGGGLVQAGGSLRLSCAASARTFKPYAMGWYRQAPGKERELVAAISTRGGSTYYADSVKGRFTISRDNAKNTVYLQMNSLKPEDTAVYYCAATQPCRDYDYWGQGTQVTVSS", "polyreactivity (PSR sort gate)", "low polyreactivity"),
    ("QVQLVESGGGLVQAGGSLRLSCAASGNTFRWYAMGWYRQAPGKERELVATISRRGGITYYADSVKGRFTISRDNAKNTVYFQMNSLKPEDTAVYYCAAYSGSGLGAYDYWGQGTQVTVSS", "polyreactivity (PSR sort gate)", "high polyreactivity"),
    ("QVQLVESGGGLVQAGGSLRLSCAASGFIFPPYAMGWYRQAPGTERELVAAIRISGGSTYYADSVKGRFTISRDNAKNTVYFHLNSLKPEDTAVYYCAARYVSSTPAFAYYYWGQGTQVTVSS", "polyreactivity (PSR sort gate)", "high polyreactivity"),
    ("QVQLVESGGGLVQAGGTLPLTCAASGSTYYVYAMGCDRQAPGKEREFVAAITGSDGSTYYADSVMGRFTISRDNAKNTVYLQMNSLKPEDTAVYYCAADYYLQNYETGYGYWGQGTQVTVSS", "polyreactivity (PSR sort gate)", "low polyreactivity"),
    ("QVQLVESGGGLVQAGGSLRLSCAASGFIFYLYTMGWYRQAPGTEMEVVAAITQSGTRTYYADSVKGRFTISRDNAKNTVYLQMNSLKPVDTAVYYCAAEWGSSYRWGMDYWGQGTQVTVSS", "polyreactivity (PSR sort gate)", "high polyreactivity"),
    ("QVQLVESGGGLVQAGGSLRLSCAASGSTFVPYAMGWNRQAPGKERELVASISWRGGSTSYADSVKGRFTISRDNAKNTVYLQMNSLKPEDNAVYYCAARPRYRYKQDYYYWGQGSQVTVSS", "polyreactivity (PSR sort gate)", "high polyreactivity"),
]
